Recorded values, source PubChem BioAssay (NCI).

- Tested on: A498 renal
- Test Name: NCI tumour cell line growth inhibition, 48 h
Consider the following molecules; for each one, report its TGI.
Give bare numbers, in µM.

Consider the reported TGI for these molecules:
In [3]: df
Out[3]:
                                   molecule  value_units  measurement
0  CCN(CC)CCOCC[C@H]1CC[C@H]2[C@@H]3[C@H](C)Cc4cc(OS(N)(=O)=O)ccc4[C@H]3CC[C@]12C           µM         3.96
1       Cc1c2cc[n+](C)cc2c(C)c2c1sc1ccccc12           µM         13.6
2  CC[C@]1(O)CC(OC2CC(N(C)C)C(O)C(C)O2)c2c(cc3c(c2O)C(=O)c2c(O)cccc2C3=O)[C@@H]1C(=O)OC (some centres not stated)           µM         1.13
3  Cc1ccc2c(c1)C(C)Cc1c(ncnc1-n1cnc3ccccc31)N2C (configuration not stated)           µM         17.1

Each of the following entries comes with a recorded value; kindly state TGI for each.
1. COC(=O)[C@@]12C(=O)C=CC(=O)[C@@H]1C1C(=CC2COC(C)=O)O[C@@H]2OC3(CCCCC3)O[C@H]12 (some centres not stated)
2. CN(C)c1ccc(/C=c2/c3ccccc3n3c2c2ccccc2[n+]3C)cc1
3. COc1ccc2oc(=O)cc(C(c3ccc[nH]3)c3ccc[nH]3)c2c1
4. CN(C)C(Cc1cnc[nH]1)C(=O)N1CCCC1C(N)=O (configuration not stated)
5. COc1cc(NS(C)(=O)=O)ccc1Nc1c2ccc([N+](=O)[O-])cc2nc2c(C)cccc12
6. O=C[C@@H](CO)O[C@H](C=O)c1c[nH]c(=O)[nH]c1=O

### Response
[37.4, 5.14, 0.437, 98, 2.92, 744]

Please report TGI for every entry that follows.
1. CN1N=CSC12C(=O)N(c1ccc(Cl)cc1)C(=O)N2c1ccc(Cl)cc1 (configuration not stated)
2. COc1ccc(-c2cc(-c3cc(Cl)ccc3Cl)nc3n[nH]c(N)c23)cc1
3. COC(=O)C1=C(c2ccc(OC)c(OC)c2)OC(c2ccc(OC)c(OC)c2)C1 (configuration not stated)
4. Cc1ccc(-c2nc(C)c(C(=O)Nc3ccc(Cl)cc3)s2)cc1
5. Clc1ccc(CSC(Cn2ccnc2)c2ccc(Cl)cc2Cl)cc1 (configuration not stated)

### Response
1. 9.67
2. 57.5
3. 46.9
4. 41.5
5. 2.33

Below are 4 molecules. Give each one its TGI.
1. Brc1ccc2[nH]cc(-c3csc(-c4ccccn4)n3)c2c1
2. O=C(Nn1c(-c2ccccc2)nc2ccccc2c1=O)c1ccc(CS)cc1
3. COc1ccc(C2CC(c3cc(OC)c(OC)c(OC)c3)=NO2)cc1OCCCCOc1cc2c(cc1OC)C(=O)N1CCC[C@H]1C=N2 (some centres not stated)
4. O=C1c2ccccc2-c2c1c1ccccc1c(=O)n2CCCCNCCCn1c2c(c3ccccc3c1=O)C(=O)c1ccccc1-2

### Response
[12.4, 99.8, 3.22, 5.64]

### Prompt Need TGI of `CS/C(=N\C(=S)N(C)C)N(c1ccccc1)c1nc(=[N+](C)C)ss1` , thanks.
### Response 7.04

###

Could you please report measured TGI for the items listed next?
- Tested on: TK-10 renal
- Test Name: NCI tumour cell line growth inhibition, 48 h
One number for each entry, in µM.

// each listed molecule needs a value for TGI
1. CC(=O)NCCc1c2c(c3nccc4c3c1Nc1ccccc1-4)OCS2
2. O=C(/C=C1\N=C(c2ccccc2)N(c2nc3ccc(Sc4ccccc4)cc3[nH]2)C1=O)/C=C/c1ccccc1
3. COc1ccc2nc3cc(Cl)ccc3c(NCCCN(Cc3cc(OC)c(OC)c(OC)c3)Cc3cc(OC)c(OC)c(OC)c3)c2c1
4. COc1cc2c(/C=C3/C(=O)N(C)c4ccccc43)c(Cl)[nH]c2cc1C

### Response
1: 18.9; 2: 98.2; 3: 44.1; 4: 5.16
